Target: human A3 adenosine receptor (Homo sapiens, UniProt P0DMS8)
Sequence (P0DMS8 1-318): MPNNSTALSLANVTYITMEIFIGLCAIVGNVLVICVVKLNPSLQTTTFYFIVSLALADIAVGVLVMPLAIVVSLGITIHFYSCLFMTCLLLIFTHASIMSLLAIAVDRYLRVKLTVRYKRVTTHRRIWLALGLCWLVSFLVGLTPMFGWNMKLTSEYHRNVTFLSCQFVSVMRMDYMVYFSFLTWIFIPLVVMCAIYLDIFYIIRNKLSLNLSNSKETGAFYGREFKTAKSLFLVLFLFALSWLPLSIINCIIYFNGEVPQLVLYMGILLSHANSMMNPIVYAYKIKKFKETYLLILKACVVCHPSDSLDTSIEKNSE
Observable: pKi
Keep in mind that pKi stands for -log10 of concentration in molar terms.

Prompt: Provide value of pKi for this record tested with human A3 adenosine receptor (Homo sapiens, UniProt P0DMS8): OC[C@H]1O[C@@H](n2cnc3c(NC4CCCC4)ncnc32)[C@H](O)[C@@H]1O
Response: 7.05

* * *

Target: human A3 adenosine receptor (Homo sapiens)
Construct: clone HS-21a contained the complete open reading frame corresponding to the human homolog of the rat A3 adenosine receptor; expressed in transfected cells; host or cells: CHO cells stably transfected with HS-21a cDNA
Sequence (P0DMS8 1-318): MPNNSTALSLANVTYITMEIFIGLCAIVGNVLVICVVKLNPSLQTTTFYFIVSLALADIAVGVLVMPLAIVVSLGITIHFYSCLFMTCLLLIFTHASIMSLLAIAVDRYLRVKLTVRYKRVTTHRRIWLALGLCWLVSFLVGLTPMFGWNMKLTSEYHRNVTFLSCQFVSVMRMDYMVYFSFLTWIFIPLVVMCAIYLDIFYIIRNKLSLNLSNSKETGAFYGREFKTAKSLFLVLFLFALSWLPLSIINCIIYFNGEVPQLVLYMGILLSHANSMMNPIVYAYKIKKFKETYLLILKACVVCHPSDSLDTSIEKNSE
Test: inhibition of forskolin-stimulated cAMP accumulation in stably transfected CHO cells expressing the human A3 receptor
Format: cell-based
Conditions: stably transfected CHO cells, human A3
Observable: inhibition of forskolin-stimulated cAMP accumulation

Prompt: Name the recorded inhibition of forskolin-stimulated cAMP accumulation for C[C@@H](Cc1ccccc1)Nc1ncnc2c1ncn2[C@@H]1O[C@H](CO)[C@@H](O)[C@H]1O [S-PIA, (R,S)-N^6-phenyl-2-propyladenosine] .
Response: 30-40%

Prompt: Name the recorded inhibition of forskolin-stimulated cAMP accumulation for C[C@H](Cc1ccccc1)Nc1ncnc2c1ncn2[C@@H]1O[C@H](CO)[C@@H](O)[C@H]1O .
Response: 30-40%

Prompt: Name the recorded inhibition of forskolin-stimulated cAMP accumulation for CCNC(=O)[C@H]1O[C@@H](n2cnc3c(N)ncnc32)[C@H](O)[C@@H]1O .
Response: 30-40%

Prompt: Name the recorded inhibition of forskolin-stimulated cAMP accumulation for OC[C@H]1O[C@@H](n2cnc3c(NC4CCCC4)ncnc32)[C@H](O)[C@@H]1O .
Response: 30-40%

Prompt: Name the recorded inhibition of forskolin-stimulated cAMP accumulation for Nc1ncnc2c1ncn2[C@@H]1O[C@H](CO)[C@@H](O)[C@H]1O .
Response: 30-40%
